Parameter: melting point. Scope: all listed entries.

| compound | melting point |
| --- | --- |
| CC(=O)OC1=CC2=CCC3C(CCC4(C)C(OC(C)=O)CCC34)C2CC1 (stereo unspecified) | 165 to 171 °C |
| Cc1ncc2c(c1OCC(=O)O)COC2(C)c1ccc(F)cc1 (stereo unspecified) | 184 to 186 °C |
| CC(C)(C)OC(=O)Nc1cc(N2CC3OC(C)(C)OC3C2)c(-c2ccc(F)cc2)cc1[N+](=O)[O-] (stereo unspecified) | 119 °C |
| O=CN(Cc1cccs1)C1(c2ccc(Cl)cc2)CCC1 | 114 to 119 °C |
| COc1c(C=O)cc(Cl)c(Cl)c1OC | 75 to 77 °C |
| CNCCn1nc(N)c2cc3cc(OC)ccc3nc21 | 142 to 144 °C |
| N#CC(C#N)=C1N(CCN2CCCCC2)c2ccccc2N1CCN1CCCCC1 | 127 to 128 °C |
| CCNC(=O)N1CCCC(n2nnnc2-c2cc(-c3cc(C(C)C)ccc3OC)c(O)cc2O)C1 (stereo unspecified) | 223 to 226 °C |
| CC1CCCCC1C(=O)Nc1ccc(-c2ncc(-c3ccc(NC(=O)c4cccnc4)cc3)[nH]2)cc1 (stereo unspecified) | 245 to 247 °C |
| CCC(Oc1ccc(-c2ccc(C#N)c(Cl)c2)cc1)C(O)CCc1cccnc1 (stereo unspecified) | 99 to 100 °C |
| Oc1c2c(nn1-c1ccccn1)CCCC2 | 121 to 122 °C |

====

Parameter: melting point. Scope: all listed entries.

| compound | melting point |
| --- | --- |
| COc1ccc(C=CCCCCCC(=O)O)cc1 | 42 to 43 °C |
| CC(C)(C)OC(=O)NCc1cccc(Cn2ccc(OCc3ccc(F)cc3)c(Br)c2=O)c1 | 136 to 138 °C |
| CC(C)C(C)(C(=O)O)N1C(=O)c2ccccc2C1=O (stereo unspecified) | 151 to 152 °C |
| NC(=O)c1cc(F)c(N[C@H]2CC[C@H](N)CC2)cc1F | 209 to 210 °C |
| O=C1CCC(=O)N1CC(=O)N1c2ccccc2N(Cc2ccccc2)C(=O)[C@H]2CCC[C@H]21 (relative stereo) | 212 to 213 °C |
| O=C1CCc2ccc(NC(=O)c3cc4cccnc4n3Cc3cccc(F)c3)cc2N1 | 280 to 282 °C |

====

| compound | melting point |
| --- | --- |
| COc1ccc(C2C3=C(COC3=O)Nc3ccc4cc(C)[nH]c4c32)c(F)c1 (centres undefined) | 205 to 207 °C |
| COc1ccc2c(Cc3c(Cl)cncc3Cl)nncc2c1 | 173 to 175 °C |
| CCCc1c(OCCCOc2cccc3c2CCCC3)ccc2c1OC(CCCC(O)CO)(CCCC(O)CO)CC2=O (centres undefined) | 87 to 88 °C |
| COc1cc(OC)cc(C2CCCCC2=CC(=O)O)c1 (centres undefined) | 154 to 156 °C |
| Cc1ccccc1N1CCN(S(=O)(=O)CC23CCC(CC2=O)C3(C)C)CC1 (centres undefined) | 112 to 114 °C |
| CCOC(=O)c1cn(CC)c2cc(C3CCCCC3)c(OC)cc2c1=O | 154 to 156 °C |
| CC(=O)c1ccc2c(c1)SC(C)(C)S2 | 75 to 76 °C |
| CCNc1nc2ccc(CCc3cn4ccc(C)cc4n3)cc2o1 | 156 to 158 °C |
| CCn1c(=O)c2[nH]c(/C=C/c3ccc(OC)c(F)c3)nc2n(CC)c1=O | > 270 °C |
| O=C(CCC(=O)N1CCC(c2ccc(Cl)cc2)CC1)c1ccc2c(c1)CNCC2 | 121 to 122 °C |
| O=P(c1ccccc1)(c1ccccc1)c1cc(P(=O)(c2ccccc2)c2ccccc2)ncn1 | 213 to 215 °C |
| O=C1OC(=O)c2c(C(F)(F)F)c3ccccc3c3cccc1c23 | 235 to 237 °C |
| O=c1[nH]c2ncc(-c3cccc(-c4nc[nH]n4)c3)nc2n1CC1CCCCC1 | 305 to 307 °C |
| CCOC(=O)c1sc(-c2cccn2C)nc1-c1ccccc1 | 86 to 89 °C |
